Hey, just so you know, these numbers are from patent US20260070917A1.

- ASSAY SYSTEM: CDK9 (Homo sapiens, UniProt P50750)
- Construct: host or cells: HEK293-CDK9-Hibit
- Sequence (P50750 whole entry): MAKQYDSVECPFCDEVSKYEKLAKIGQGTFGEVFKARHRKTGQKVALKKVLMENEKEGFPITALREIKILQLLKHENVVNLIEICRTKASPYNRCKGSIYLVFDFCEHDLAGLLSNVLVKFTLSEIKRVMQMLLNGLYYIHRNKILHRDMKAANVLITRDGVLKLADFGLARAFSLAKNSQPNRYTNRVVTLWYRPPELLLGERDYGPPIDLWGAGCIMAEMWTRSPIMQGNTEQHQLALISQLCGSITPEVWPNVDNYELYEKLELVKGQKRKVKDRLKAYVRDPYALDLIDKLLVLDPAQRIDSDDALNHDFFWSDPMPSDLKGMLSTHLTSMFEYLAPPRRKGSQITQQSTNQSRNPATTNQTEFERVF
- ASSAY METHOD TEXT: HiBit Assay Protocol for CDK9 (HIBIT protein quantification, degradation)
- Format: cell-based
- MEASUREMENT CONDITIONS: 6 h, HEK293-CDK9-Hibit cells, compound treatment for 6 hours; read-out: CDK9 HIBIT Protein Quantification Maximum
PROPERTY LABEL: Dmax (%)

[[record]]
compound = "C[C@@H](c1cccc(S(=O)(=O)N2CC[C@H](Nc3ncc4c(n3)N([C@@H]3CCC[C@@H](O)C3)C(=O)C43CC3)[C@H](F)C2)c1)N1CCN(c2ccc3c(N4CCC(=O)NC4=O)nn(C)c3c2)CC1 [Compound 197]"
reported_value = 8


P = CC1CCCC1N1C(=O)C2(CC2)c2cnc(NC3CCN(S(=O)(=O)N4CC5CN(C(=O)CCCc6cccc7c6n(C)c(=O)n7C6CCC(=O)NC6=O)CC5C4)CC3)nc21 (centres unmarked) [Compound 23]
Q = CC1CCCC1N1C(=O)C2(CC2)c2cnc(NC3CCN(S(=O)(=O)N4CC5(CCCCN5C(=O)CCCCc5cccc6c5n(C)c(=O)n6C5CCC(=O)NC5=O)C4)CC3)nc21 (centres unmarked) [Compound 95]
R = CC1CCCC1N1C(=O)C2(CC2)c2cnc(NC3CCN(S(=O)(=O)N4CCCC45CCN(C(=O)CCCCCc4cccc6c4n(C)c(=O)n6C4CCC(=O)NC4=O)C5)CC3)nc21 (centres unmarked) [Compound 35]
S = CC1CCCC1N1C(=O)C2(CC2)c2cnc(NC3CCN(S(=O)(=O)N4CCCC45CCN(C(=O)CCCCc4ccc6c(c4)n(C)c(=O)n6C4CCC(=O)NC4=O)C5)CC3)nc21 (centres unmarked) [Compound 104]
q: # sort list by recorded Dmax, greatest to least Write the labels out in the order the request specifies.
a: P, R, S, Q
(P: 49%, R: 17%, S: 11%, Q: 7%)

----------
- ASSAY SYSTEM: CDK2 (Homo sapiens, UniProt P24941)
- Construct: host or cells: HEK293-CDK2-Hibit
- ASSAY METHOD TEXT: HiBit Assay Protocol for CDK2 (HIBIT protein quantification, degradation)
- Type: cell-based
- MEASUREMENT CONDITIONS: HEK293-CDK2-Hibit cells, compound treatment for 6 hours, ABS DC50
PROPERTY LABEL: DC50 (nM)

[[record]]
compound = "O=C1CCC(N2Cc3cc(N4CCN(CC5CCN(c6cccc(S(=O)(=O)c7ccc(Nc8ncc9c(n8)N([C@@H]8CCC[C@@H](O)C8)C(=O)C98CC8)cc7)c6)CC5)CC4)ccc3C2=O)C(=O)N1 (some centres unmarked)"
assay_system = "CDK2 (Homo sapiens, UniProt P24941)"
unit_abbreviation = "nM"
reported_value = 6

[[record]]
compound = "Cn1c(=O)n(C2CCC(=O)NC2=O)c2cccc(N3CCC(Cn4cc(S(=O)(=O)N5CCC(Nc6ncc7c(n6)N([C@@H]6CCC[C@@H](O)C6)C(=O)C76CC6)CC5)cn4)CC3)c21 (some centres unmarked)"
assay_system = "CDK2 (Homo sapiens, UniProt P24941)"
unit_abbreviation = "nM"
reported_value = 15.8


1 = CC1CCCC1N1C(=O)C2(CC2)c2cnc(NC3CCN(S(=O)(=O)N4CCC5(CCN(C(=O)CCCc6ccc7c(c6)n(C)c(=O)n7C6CCC(=O)NC6=O)C5)C4)CC3)nc21 (centres unmarked)
2 = C[C@H](c1cc(S(=O)(=O)N2CC[C@H](Nc3ncc4c(n3)N([C@@H]3CCC[C@@H](O)C3)C(=O)C43CC3)[C@H](F)C2)ccc1F)N1CCN(c2ccc3c(N4CCC(=O)NC4=O)nn(C)c3c2)CC1
3 = CN(CCCN1CCC(c2cccc3c2n(C)c(=O)n3C2CCC(=O)NC2=O)CC1)S(=O)(=O)N1CCC(Nc2ncc3c(n2)N([C@@H]2CCC[C@@H](O)C2)C(=O)C32CC2)CC1 (some centres unmarked)
q: Ascending by DC50, please. List the labels, following the order given in the request.
a: 2, 3, 1

----------
- ASSAY SYSTEM: CCNE1 (Homo sapiens, UniProt P24864)
- Construct: host or cells: HEK293-CCNE1-Hibit
- Sequence (P24864 whole entry): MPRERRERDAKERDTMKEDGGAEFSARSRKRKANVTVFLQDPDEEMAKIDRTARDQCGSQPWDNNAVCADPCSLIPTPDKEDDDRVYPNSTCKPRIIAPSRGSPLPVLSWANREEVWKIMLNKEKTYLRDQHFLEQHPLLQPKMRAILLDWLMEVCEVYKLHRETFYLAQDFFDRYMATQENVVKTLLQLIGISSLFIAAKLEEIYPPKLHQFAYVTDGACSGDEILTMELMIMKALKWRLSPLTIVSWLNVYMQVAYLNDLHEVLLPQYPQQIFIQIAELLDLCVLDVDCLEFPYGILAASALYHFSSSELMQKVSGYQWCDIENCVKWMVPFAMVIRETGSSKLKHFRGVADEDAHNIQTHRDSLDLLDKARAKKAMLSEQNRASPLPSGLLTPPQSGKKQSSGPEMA
- ASSAY METHOD TEXT: HiBit Assay Protocol for CCNE1 (HIBIT protein quantification, degradation)
- Format: cell-based
- MEASUREMENT CONDITIONS: HEK293-CCNE1-Hibit cells, compound treatment for 6 hours
PROPERTY LABEL: CCNE1 HIBIT Protein Quantification Maximum (%)

[[record]]
compound = "O=C1CCC(N2Cc3cc(CN4CC(Oc5cccc(S(=O)(=O)N6CCC(Nc7ncc8c(n7)N([C@@H]7CCC[C@@H](O)C7)C(=O)C87CC7)CC6)c5)C4)ccc3C2=O)C(=O)N1 (stereo partly shown) [Compound 132]"
reported_value = 47

[[record]]
compound = "Cn1nc(N2CCC(=O)NC2=O)c2ccc(C3CCN(Cc4cccc(S(=O)(=O)N5CCC(Nc6ncc7c(n6)N([C@@H]6CCC[C@@H](O)C6)C(=O)C76CC6)CC5)c4)C(C)(C)C3)cc21 (stereo partly shown) [Compound 183]"
reported_value = 43


1 = CC1CCCC1N1C(=O)C2(CC2)c2cnc(NC3CCN(S(=O)(=O)N4CC(N(C)C(=O)CCCCCc5cccc6c5n(C)c(=O)n6C5CCC(=O)NC5=O)C4)CC3)nc21 (stereo not shown) [Compound 34]
2 = Cn1nc(N2CCC(=O)NC2=O)c2ccc(C3CCN(Cc4cccc(S(=O)(=O)N5CC[C@@H](Nc6ncc7c(n6)N([C@@H]6CCC[C@@H](O)C6)C(=O)C76CC6)[C@@H](F)C5)c4)CC3)cc21 [Compound 155]
3 = CC1CCCC1N1C(=O)C2(CC2)c2cnc(Nc3ccc(S(=O)(=O)N(C)CCCN4CCC(c5cccc6c5n(C)c(=O)n6C5CCC(=O)NC5=O)CC4)cc3)nc21 (stereo not shown) [Compound 117]
4 = CC1CCCC1N1C(=O)C2(CC2)c2cnc(NC3CCN(S(=O)(=O)N4CCC5(CCN(C(=O)CCCc6cccc7c6n(C)c(=O)n7C6CCC(=O)NC6=O)C5)C4)CC3)nc21 (stereo not shown) [Compound 32]
q: Provide the items ranked by increasing CCNE1 HIBIT Protein Quantification Maximum. Please respond by ranking the labels in the order requested.
a: 2, 4, 1, 3
(2: 14%, 4: 22%, 1: 44%, 3: 64%)

----------
- ASSAY SYSTEM: CDK2 (Homo sapiens)
- Construct: host or cells: HEK293-CDK2-Hibit
- ASSAY METHOD TEXT: HiBit Assay Protocol for CDK2 (HIBIT protein quantification, degradation)
- Format: cell-based
- MEASUREMENT CONDITIONS: HEK293-CDK2-Hibit cells, compound treatment for 6 hours
PROPERTY LABEL: CDK2 HIBIT Protein Quantification Maximum (%)

[[record]]
compound = "C[C@@H](c1cccc(S(=O)(=O)N2CCC(Nc3ncc4c(n3)N([C@@H]3CCC[C@@H](O)C3)C(=O)C43CC3)CC2)c1)N1CCC(c2ccc3c(N4CCC(=O)NC4=O)nn(C)c3c2)CC1 (single isomer, unassigned)"
assay_system = "CDK2 (Homo sapiens)"
reported_value = 88


1 = C[C@H](c1cccc(S(=O)(=O)N2CC[C@H](Nc3ncc4c(n3)N([C@@H]3CCC[C@@H](O)C3)C(=O)C43CC3)[C@H](F)C2)c1)N1CCN(c2ccc3c(N4CCC(=O)NC4=O)nn(C)c3c2)CC1
2 = CC1CCCC1N1C(=O)C2(CC2)c2cnc(NC3CCN(S(=O)(=O)N4CC(N(C)C(=O)CCCCCCCCCc5ccc6c(c5)n(C)c(=O)n6C5CCC(=O)NC5=O)C4)CC3)nc21 (stereo not drawn)
q: Lowest CDK2 HIBIT Protein Quantification Maximum? choose 1 or 2 // return label of chosen record
a: 2
(2: 65%, 1: 93%)

----------
- ASSAY SYSTEM: CDK2 (Homo sapiens)
- Construct: host or cells: HEK293-CDK2-Hibit
- ASSAY METHOD TEXT: HiBit Assay Protocol for CDK2 (HIBIT protein quantification, degradation)
- Format: cell-based
- MEASUREMENT CONDITIONS: HEK293-CDK2-Hibit cells, compound treatment for 6 hours, ABS DC50
PROPERTY LABEL: DC50 (nM)

[[record]]
compound = "Cn1nc(N2CCC(=O)NC2=O)c2ccc(C3CCN(Cc4cccc(S(=O)(=O)N5CCC(Nc6ncc7c(n6)N([C@@H]6CCC[C@@H](O)C6)C(=O)C76CC6)CC5)c4)CC3F)cc21 (stereo partly drawn)"
reported_value = 7.18


A = CC1CCCC1N1C(=O)C2(CC2)c2cnc(NC3CCN(S(=O)(=O)N4CC5(CN(C(=O)CCCc6cccc7c6n(C)c(=O)n7C6CCC(=O)NC6=O)C5)C4)CC3)nc21 (stereo not drawn)
B = Cc1c(CN2CCC(c3ccc4c(N5CCC(=O)NC5=O)nn(C)c4c3)CC2)cccc1S(=O)(=O)N1CCC(Nc2ncc3c(n2)N([C@@H]2CCC[C@@H](O)C2)C(=O)C32CC2)CC1
q: Which has the smaller recorded DC50, A or B ? Your answer should be the label attached to the chosen record.
a: B
